Parameter: inhibition at 50 µM. Scope: all listed entries.
target: Cathepsin V (Homo sapiens, UniProt O60911); construct: made in house; host or cells: Pichia pastoris; test: Determination of relative inhibition, substrate Z-Phe-Arg-AMC; assay type: biochemical; settings: inhibitor 50 μM; substrate 2 μM; mean ± SD (n = 2); read-out: Cathepsin V Ri (%) relative inhibition
Sequence (O60911 114-334): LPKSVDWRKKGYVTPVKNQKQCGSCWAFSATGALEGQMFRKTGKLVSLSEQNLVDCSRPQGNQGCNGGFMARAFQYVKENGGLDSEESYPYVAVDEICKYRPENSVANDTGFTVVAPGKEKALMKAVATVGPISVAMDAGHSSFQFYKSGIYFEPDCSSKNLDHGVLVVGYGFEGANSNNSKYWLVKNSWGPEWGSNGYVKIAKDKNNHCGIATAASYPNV

- molecule: "O=C(NCc1cccc2ccccc12)NCC1CCN(C(=O)Oc2ccccc2)CC1"
  operator_symbol: ">"
  inhibition at 50 µM (%): 20
- molecule: "O=C(NCc1nnc2c(C(F)(F)F)cccn12)c1cc(-c2cccs2)n[nH]1"
  operator_symbol: "="
  inhibition at 50 µM (%): 3.8
- molecule: "COc1ccc(-c2cn3c(CCC(=O)Nc4nc5ccccc5s4)csc3n2)cc1"
  operator_symbol: "="
  inhibition at 50 µM (%): 18.9
- molecule: "Cc1cc(OCc2ccccc2)c(C(=O)C2OC2c2csc(-c3ccccc3)n2)cc1C (stereo not drawn)"
  operator_symbol: "="
  inhibition at 50 µM (%): 22.9
- molecule: "O=C(N[C@H]1CCCN(Cc2ccccc2)C1)c1ccc(CN2CCCC2)o1"
  operator_symbol: "="
  inhibition at 50 µM (%): 1.1
- molecule: "CC1Oc2ccccc2OC1C(=O)NCC#CCN1CCc2ccccc2C1 (stereo not drawn)"
  operator_symbol: "="
  inhibition at 50 µM (%): -9.5
- molecule: "O=C(NC[C@H]1CCCN1c1ccccc1)c1cccnc1"
  operator_symbol: "="
  inhibition at 50 µM (%): 7.8
- molecule: "O=C(c1cc(F)ccc1OCc1ccccc1)C1OC1c1ccc2c(c1)OCCO2 (stereo not drawn)"
  operator_symbol: "="
  inhibition at 50 µM (%): 0.8
- molecule: "O=C(Nc1nc2c(s1)CN(Cc1ccccc1)CC2)c1ccccc1"
  operator_symbol: "="
  inhibition at 50 µM (%): 6.9
- molecule: "COC(=O)N1CCC(CNC(=O)NCc2cccc3ccccc23)CC1"
  operator_symbol: "="
  inhibition at 50 µM (%): 11.1
- molecule: "COC(=O)Cc1c[nH]c2ccc(OCC3CO3)cc12 (stereo not drawn)"
  operator_symbol: ">"
  inhibition at 50 µM (%): 20
- molecule: "O=C(NCC1CCN(C(=O)Oc2ccccc2)CC1)NC(c1ccccc1)c1ccccc1"
  operator_symbol: "="
  inhibition at 50 µM (%): 21.6
- molecule: "O=C(NCc1ccc(F)cc1)NCC1CCN(C(=O)Oc2ccccc2)CC1"
  operator_symbol: "="
  inhibition at 50 µM (%): 17.7
- molecule: "O=C(NCCN1CCN(c2ccc(Cl)cc2)CC1)[C@H]1CC(=O)N(c2ccccc2)C1"
  operator_symbol: "="
  inhibition at 50 µM (%): -20.3
- molecule: "CNC(=O)C1(COC)CCCN1C(=O)CN1CCOCC1=O (stereo not drawn)"
  operator_symbol: "="
  inhibition at 50 µM (%): 7.9
- molecule: "O=C(NC(Cc1ccccc1)C(=O)O)C1CCC(CNC(=O)C2Cc3ccccc3CN2)CC1 (stereo not drawn)"
  operator_symbol: "="
  inhibition at 50 µM (%): -9.8
- molecule: "O=C(c1ccccc1OCc1ccccc1)C1OC1c1csc(-c2ccccc2)n1 (stereo not drawn)"
  operator_symbol: "="
  inhibition at 50 µM (%): 27.6
- molecule: "O=C(Nc1nc2c(s1)CN(Cc1ccccc1)CC2)c1ccc(-c2ccccc2)cc1"
  operator_symbol: "="
  inhibition at 50 µM (%): 29.2
